# ASSAY COMMENT: Metabolic stability in human plasma assessed as half life at 2 uM incubated upto 60 mins […] by LC-MS/MS analysis
# Assay type: ADME, cell-free
RECORDED METRIC: half-life at 2 µM

Req: // lookup half-life at 2 µM for COc1ccc(Nc2ncnc3ccc(-c4c[nH]c5nc(C)ccc45)cc23)c(F)c1
Resp: > 4.07 h

Req: Consider next the molecule Cc1ccc2c(-c3ccc4ncnc(N[C@H](CO)c5ccccc5)c4c3)c[nH]c2n1 in the same way.
Resp: > 3.33 h

Req: Then Cc1ccc2c(-c3ccc4ncnc(NC[C@H](O)c5ccccc5)c4c3)c[nH]c2n1 ?
Resp: > 4.93 h

Req: How about CCN(CC)CCOC(=O)c1ccc(N)cc1 [PROCAINE] ?
Resp: 0.0117 h

Entry source: ChEMBL document CHEMBL5550204
